tested on: MCF-7 cells; assay: Breast cancer cell viability assay (CellTiter-Glo, 5 days); format: cell-based; details: Homo sapiens, MCF7, 120 h, 5 days' compound exposure
IC50 listing for selected compounds.

Some solved entries appear below for comparison.
compound_structure_string: CCOC(=O)/C=C/c1ccc(/C(=C(/CC)c2ccccc2)c2ccc3cn[nH]c3c2)cc1
IC50: ≤ 100 nM
//
compound_structure_string: CC/C(=C(/c1ccc(/C=C/C(=O)O)cc1)c1ccn2ncnc2c1)c1ccccc1
IC50: > 100 nM
//
compound_structure_string: CC/C(=C(/c1ccc(/C=C/C(=O)O)cc1)c1ccc2[nH]ncc2c1)c1ccc(OCC(=O)O)cc1
IC50: > 100 nM
//
compound_structure_string: CC/C(=C(/c1ccc(/C=C/C(=O)O)cc1)c1cccc2[nH]ncc12)c1ccccc1
IC50: ≤ 100 nM
//
compound_structure_string: CC/C(=C(/c1ccc(/C=C/C(=O)O)cc1)c1ccc2[nH]ncc2c1)c1cccc(OCCCCC(=O)O)c1
IC50: > 100 nM
//
compound_structure_string: CS(=O)(=O)c1ccc(Oc2ccc(/C(=C(\c3ccc(/C=C/C(=O)O)cc3)c3ccc4[nH]ncc4c3)C3CCC3)cc2)nc1
IC50: ≤ 100 nM

Query :: Need IC50 of CC/C(=C(/c1ccc(/C=C/C(=O)O)cc1)c1ccc2[nH]ncc2c1)c1ccc2sccc2c1 , thanks.
Result :: ≤ 100 nM

Query :: Would you mind telling me what IC50 value was observed for CC/C(=C(/c1ccc(/C=C/C(=O)O)cc1)c1ccc2ncsc2c1)c1ccccc1 ?
Result :: > 100 nM

Query :: For the compound CC/C(=C(/c1ccc(/C=C/C(=O)O)cc1)c1ccc2[nH]ncc2c1)c1ccc2sc(C)nc2c1 , what IC50 is on record?
Result :: ≤ 100 nM

---

target: ER-α in MCF-7 cells (Homo sapiens, UniProt P03372); test: Breast cancer cell ER-α in cell western assay (SP1); type: cell-based; design: endogenous in cells; host or cells: MCF-7; details: SP1 antibody, 4 or 24 hr post compound addition, read-out: ER-α In Cell Western Assay (SP1) IC50
Sequence (P03372 whole entry): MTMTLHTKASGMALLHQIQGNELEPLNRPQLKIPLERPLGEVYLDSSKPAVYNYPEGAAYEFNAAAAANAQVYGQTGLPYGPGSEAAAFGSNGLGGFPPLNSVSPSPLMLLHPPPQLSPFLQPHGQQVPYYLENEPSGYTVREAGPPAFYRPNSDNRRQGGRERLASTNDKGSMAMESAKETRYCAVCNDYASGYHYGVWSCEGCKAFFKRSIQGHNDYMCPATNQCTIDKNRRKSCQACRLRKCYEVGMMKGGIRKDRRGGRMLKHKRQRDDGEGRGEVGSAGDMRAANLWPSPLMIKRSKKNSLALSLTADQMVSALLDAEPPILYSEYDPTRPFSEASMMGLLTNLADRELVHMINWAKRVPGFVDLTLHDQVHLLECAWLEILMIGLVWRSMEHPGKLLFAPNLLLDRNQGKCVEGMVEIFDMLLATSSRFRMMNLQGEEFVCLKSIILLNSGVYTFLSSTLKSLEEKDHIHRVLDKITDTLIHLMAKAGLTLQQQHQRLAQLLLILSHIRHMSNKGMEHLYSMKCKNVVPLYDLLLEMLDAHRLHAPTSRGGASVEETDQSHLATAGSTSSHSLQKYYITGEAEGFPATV
Below, each entry is listed alongside its reported DC50.

Use the examples below as a reference point.
compound_structure_string: CC/C(=C(/c1ccc(/C=C/C(=O)O)cc1)c1ccc2nn(C(F)F)cc2c1)c1ccc(F)cc1Cl
DC50: ≤ 0.1 µM

compound_structure_string: CNC(=O)/C=C/c1ccc(/C(=C(\c2ccccc2)C2CCC2)c2ccc3c(cnn3C)c2)cc1
DC50: ≤ 0.1 µM

compound_structure_string: CCOC(=O)/C=C/c1ccc(/C(=C(/CC)c2ccccc2)c2ccc3cn[nH]c3c2)cc1
DC50: > 0.1 µM

compound_structure_string: CC/C(=C(/c1ccc(/C=C/C(=O)O)cc1)c1ccc2[nH]ncc2c1)c1cccc(Oc2cccnc2)c1
DC50: ≤ 0.1 µM

Next molecule, DC50 to be filled in.
Query :: Tell me the measured DC50 of CC/C(=C(/c1ccc(OCC(=O)O)cc1)c1ccc2[nH]ncc2c1)c1ccccc1 , please.
Result :: > 0.1 µM

---

molecular target: ER-α in MCF-7 cells (Homo sapiens, UniProt P03372); assay: Breast cancer cell ER-α in cell western assay (SP1); type: cell-based; parameters: endogenous in cells; host or cells: MCF-7; conditions: SP1 antibody, 4 or 24 hr post compound addition, read-out: ER-α In Cell Western Assay (SP1) IC50
Measured DC50 of individual entries

# example entries with known answers
compound_structure_string: CC/C(=C(/c1ccc(/C=C/C(=O)O)cc1)c1ccc2[nH]ncc2c1)c1cccc(N2CCOCC2)c1
assay_target: ER-α in MCF-7 cells (Homo sapiens, UniProt P03372)
DC50: > 100 nM
--
compound_structure_string: CC/C(=C(/c1ccc(/C=C/C(=O)O)cc1)c1ccc2[nH]ncc2c1)c1cccc(OCCCC(=O)O)c1
assay_target: ER-α in MCF-7 cells (Homo sapiens, UniProt P03372)
DC50: > 100 nM
--
compound_structure_string: CC/C(=C(/c1ccc(/C=C/C(=O)O)cc1)c1ccc2[nH]ncc2c1)c1ccncc1F
assay_target: ER-α in MCF-7 cells (Homo sapiens, UniProt P03372)
DC50: ≤ 100 nM
--
compound_structure_string: CC/C(=C(/c1ccc(/C=C/C(=O)O)cc1)c1ccc2[nH]ncc2c1)c1cccc(Oc2ncccn2)c1
assay_target: ER-α in MCF-7 cells (Homo sapiens, UniProt P03372)
DC50: ≤ 100 nM
--
compound_structure_string: CC/C(=C(/c1ccc(-c2cc(O)no2)cc1)c1ccc2[nH]ncc2c1)c1ccc(F)cc1Cl
assay_target: ER-α in MCF-7 cells (Homo sapiens, UniProt P03372)
DC50: ≤ 100 nM
--
compound_structure_string: O=C(O)/C=C/c1ccc(/C(=C(\c2ccncc2Cl)C2CCC2)c2ccc3[nH]ncc3c2)cc1
assay_target: ER-α in MCF-7 cells (Homo sapiens, UniProt P03372)
DC50: ≤ 100 nM

Query :: Checklist item: DC50 tested on ER-α in MCF-7 cells (Homo sapiens, UniProt P03372), entry CC/C(=C(/c1ccc(/C=C/C(=O)O)cc1)c1ccc2[nH]ncc2c1)c1ccc(OCCCCC(=O)O)cc1 , value?
Result :: > 100 nM
